Ref: patent US9440957B2

TESTED TARGET: human EGFR L858R/T790M (NIH/3T3 cells) (Homo sapiens, UniProt P00533, L858R/T790M)
Sequence (P00533 25-1210 T790M/L858R): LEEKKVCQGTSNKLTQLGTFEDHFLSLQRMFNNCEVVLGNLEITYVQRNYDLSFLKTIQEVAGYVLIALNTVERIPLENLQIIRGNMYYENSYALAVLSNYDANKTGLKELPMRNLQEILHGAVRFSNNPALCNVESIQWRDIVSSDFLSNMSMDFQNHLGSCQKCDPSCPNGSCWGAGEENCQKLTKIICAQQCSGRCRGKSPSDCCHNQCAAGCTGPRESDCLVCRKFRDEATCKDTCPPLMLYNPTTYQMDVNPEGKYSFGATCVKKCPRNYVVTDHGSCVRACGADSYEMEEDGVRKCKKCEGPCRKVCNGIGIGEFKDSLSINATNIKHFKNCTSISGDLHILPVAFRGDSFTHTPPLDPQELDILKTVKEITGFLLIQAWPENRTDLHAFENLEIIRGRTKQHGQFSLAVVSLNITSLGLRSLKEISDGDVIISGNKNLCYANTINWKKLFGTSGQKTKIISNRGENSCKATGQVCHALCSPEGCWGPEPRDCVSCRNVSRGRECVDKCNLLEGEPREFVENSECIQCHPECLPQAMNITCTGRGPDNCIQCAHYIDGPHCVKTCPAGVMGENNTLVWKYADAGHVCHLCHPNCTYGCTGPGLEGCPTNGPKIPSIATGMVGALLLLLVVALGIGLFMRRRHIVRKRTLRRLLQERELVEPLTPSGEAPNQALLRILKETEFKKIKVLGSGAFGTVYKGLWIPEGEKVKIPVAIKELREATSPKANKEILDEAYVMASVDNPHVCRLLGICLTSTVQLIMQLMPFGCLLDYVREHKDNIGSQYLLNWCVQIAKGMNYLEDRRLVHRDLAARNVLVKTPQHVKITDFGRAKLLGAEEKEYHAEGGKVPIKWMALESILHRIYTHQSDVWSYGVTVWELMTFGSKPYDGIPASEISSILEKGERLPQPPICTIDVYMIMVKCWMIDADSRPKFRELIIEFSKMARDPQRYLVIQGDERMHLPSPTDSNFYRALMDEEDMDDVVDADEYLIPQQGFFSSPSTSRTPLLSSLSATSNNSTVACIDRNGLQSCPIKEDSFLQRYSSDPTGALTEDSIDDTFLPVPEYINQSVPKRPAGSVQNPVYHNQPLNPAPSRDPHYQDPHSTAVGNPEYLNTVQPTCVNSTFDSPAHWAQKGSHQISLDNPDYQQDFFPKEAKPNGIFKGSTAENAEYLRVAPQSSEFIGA
ASSAY DETAILS: EGFR target modulation in engineered NIH/3T3 cell lines (phospho-EGFR Y1068 AlphaLISA), EGFR L858R/T790M
Format: cell-based
ASSAY SETUP: engineered NIH/3T3 cells, read-out: NIH3T3 IC50 (μM) EGFR (L858R/T790M)
Reported IC50 is given for each of the following molecules.
ENDPOINT: IC50 (µM)

MOLECULE	DATA VALUE
COc1cc(C(=O)Nc2nc3cccc(C)c3n2C2CCCCN(C(=O)/C=C/CN(C)C)C2)ccn1 (stereo not shown)	0.004
Cc1cc(C(=O)Nc2nc3cccc(Cl)c3n2[C@@H]2CCCCN(C(=O)/C=C/CN3CC[C@@H](F)C3)C2)ccn1	0.004
C=CC(=O)N1CCCC[C@@H](n2c(NC(=O)c3ccnc(C)c3)nc3cc(CN4CC[C@@H](OC)C4)cc(C)c32)C1	0.001
C=CC(=O)N1CCCC(n2c(NC(=O)c3cccc(C(F)(F)F)c3)nc3c2CCN(C(=O)OC)C3)C1 (stereo not shown)	0.14

* * *

TESTED TARGET: human EGFR L858R (NIH/3T3 cells) (Homo sapiens, UniProt P00533, L858R)
Sequence (P00533 25-1210 L858R): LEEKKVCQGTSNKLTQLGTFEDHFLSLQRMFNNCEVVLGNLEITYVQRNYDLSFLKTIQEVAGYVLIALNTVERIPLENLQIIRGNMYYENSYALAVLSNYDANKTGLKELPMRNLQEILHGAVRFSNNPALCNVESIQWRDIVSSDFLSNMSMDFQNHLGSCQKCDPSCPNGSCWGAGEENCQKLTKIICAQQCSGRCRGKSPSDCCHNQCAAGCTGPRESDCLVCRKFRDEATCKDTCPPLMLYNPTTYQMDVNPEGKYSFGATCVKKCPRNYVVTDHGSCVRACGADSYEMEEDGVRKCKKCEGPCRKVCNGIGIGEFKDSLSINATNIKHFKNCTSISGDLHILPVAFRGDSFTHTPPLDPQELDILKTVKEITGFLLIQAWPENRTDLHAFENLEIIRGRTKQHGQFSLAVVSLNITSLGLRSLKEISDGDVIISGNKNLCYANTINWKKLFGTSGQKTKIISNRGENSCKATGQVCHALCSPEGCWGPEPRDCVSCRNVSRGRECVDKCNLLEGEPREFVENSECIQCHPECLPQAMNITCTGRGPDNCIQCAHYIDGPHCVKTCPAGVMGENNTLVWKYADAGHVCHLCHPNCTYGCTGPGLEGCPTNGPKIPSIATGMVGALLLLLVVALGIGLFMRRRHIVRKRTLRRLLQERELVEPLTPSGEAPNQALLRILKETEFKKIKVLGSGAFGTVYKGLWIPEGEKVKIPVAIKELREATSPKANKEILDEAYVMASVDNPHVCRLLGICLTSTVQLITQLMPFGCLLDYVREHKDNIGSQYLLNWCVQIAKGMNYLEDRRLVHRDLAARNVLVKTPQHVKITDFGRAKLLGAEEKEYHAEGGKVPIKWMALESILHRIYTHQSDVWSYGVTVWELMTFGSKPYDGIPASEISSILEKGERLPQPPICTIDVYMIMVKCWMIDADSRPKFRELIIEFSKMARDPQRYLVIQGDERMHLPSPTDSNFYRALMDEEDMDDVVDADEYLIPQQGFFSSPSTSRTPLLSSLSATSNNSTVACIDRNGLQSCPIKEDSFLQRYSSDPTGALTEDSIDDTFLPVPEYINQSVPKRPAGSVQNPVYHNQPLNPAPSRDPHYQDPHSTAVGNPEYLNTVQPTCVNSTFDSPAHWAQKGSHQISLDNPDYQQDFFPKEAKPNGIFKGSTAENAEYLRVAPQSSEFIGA
ASSAY DETAILS: EGFR target modulation in engineered NIH/3T3 cell lines (phospho-EGFR Y1068 AlphaLISA), EGFR L858R
Type: cell-based
ASSAY SETUP: engineered NIH/3T3 cells, read-out: NIH3T3 IC50 (μM) EGFR (L858R)

COMPOUND	IC50 (µM)
Cc1cncc(C(=O)Nc2nc3cccc(C)c3n2[C@@H]2CCCCN(C(=O)/C=C/CN(C)C)C2)c1 [Example 17-68]	0.002
C=CC(=O)N1CCCC[C@@H](n2c(NC(=O)c3cccc(C(F)(F)F)c3)nc3cccc(C(=O)OC)c32)C1 [Example 17-96]	0.016
CC(C)Oc1cccc2nc(NC(=O)c3ccnnc3)n([C@@H]3CCCCN(C(=O)/C=C/CN(C)C)C3)c12 [Example 17-85]	0.043
Cc1cc(C(=O)Nc2nc3cccc(Cl)c3n2[C@@H]2CCCCN(C(=O)/C=C/CN3CCC3)C2)ccn1 [Example 3-12]	0.05
C=CC(=O)N1CCCC[C@@H](n2c(NC(=O)c3ccnnc3)nc3ccc(OC)c(Cl)c32)C1 [Example 9]	0.008
COc1ccc2nc(NC(=O)c3ccnnc3)n([C@@H]3CCCCN(C(=O)/C=C/CN(C)C)C3)c2c1Cl [Example 17-2]	0.018
C=CC(=O)N1CCCCC(n2c(NC(=O)c3cccc(C(F)(F)F)c3)nc3cccc(C(=O)O)c32)C1 (centres unmarked) [Example 20]	3.3
C=CC(=O)N1CCC[C@@H](n2c(NC(=O)c3cccc(C(F)(F)F)c3)nc3cc(CN4CCCCC4)ccc32)C1 [Example 17-118]	0.156
C=CC(=O)N1CCC[C@@H](n2c(NC(=O)c3cccc(C(F)(F)F)c3)nc3cc(COCCOC)ccc32)C1 [Example 17-124]	0.271
C=CC(=O)N1CCCC[C@@H](n2c(NC(=O)c3ccccc3)nc3cccc(CO)c32)C1 [Example 17-131]	0.01
Cc1ncc(C(=O)Nc2nc3cccc(C)c3n2C2CCCCN(C(=O)/C=C/CN(C)C)C2)s1 (single isomer, unassigned) [Example 21-8B]	0.001
Cc1cccc2nc(NC(=O)c3cccc(F)c3)n(C3CCCCN(C(=O)/C=C/CN(C)C)C3)c12 (centres unmarked) [Example 17-21]	0.007
C=CC(=O)N1CCCC[C@@H](n2c(NC(=O)c3cnnc(C)c3)nc3cccc(C)c32)C1 [Example 17-81]	0.003
C=CC(=O)N1CCCCC(n2c(NC(=O)c3ccccc3)nc3cccc(C(=O)N4C[C@@H](O)[C@H](O)C4)c32)C1 (some centres unmarked) [Example 17-140]	1.64
